Tested on: Klebsiella aerogenes DSM 30053
Assay: fold change of Putrescine concentration vs plate DMSO controls (fold change (ratio)); higher = more amine produced, active = hit call of the paper (significant change in both replicates, either direction)
Settings: incubation time: 27 h, anaerobic, 37 °C
Counter-ions that a name gives are not always drawn.
reported property: fold change of Putrescine concentration
Answers are plain numbers.

Below, 5 compounds whose answers are already recorded.
compound: CCOCCn1c(N2CCCN(C)CC2)nc2ccccc21 [Emedastine difumarate] (20 µM)
reported property: fold change of Putrescine concentration
endpoint value: 1.01
//
compound: COC(=O)Nc1nc2cc(Sc3ccccc3)ccc2[nH]1 [Fenbendazole] (20 µM)
reported property: fold change of Putrescine concentration
endpoint value: 1.03
//
compound: NC(=O)c1cc[n+](CC2=C(C(=O)O)N3C(=O)[C@@H](NC(=O)C(c4ccccc4)S(=O)(=O)[O-])[C@H]3SC2)cc1 (some centres not stated) [Cefsulodin Sodium Salt Hydrate] (20 µM)
reported property: fold change of Putrescine concentration
endpoint value: 0.997
//
compound: COc1cccc2c1C(=O)c1c(O)c3c(c(O)c1C2=O)C[C@@](O)(C(=O)CO)C[C@@H]3O[C@H]1C[C@H](N)[C@@H](O)[C@H](C)O1 [Epirubicin hydrochloride] (20 µM)
reported property: fold change of Putrescine concentration
endpoint value: 0.998
//
compound: Clc1ccc2c(c1)C(N1CCNCC1)=Nc1ccccc1O2 [Amoxapine] (20 µM)
reported property: fold change of Putrescine concentration
endpoint value: 0.974

Field: fold change of Putrescine concentration. Fill in for each record below.
1. C=CC1=C(C(=O)O)N2C(=O)[C@@H](NC(=O)/C(=N\O)c3csc(N)n3)[C@H]2SC1 [Cefdinir] (20 µM)
2. CCOC(=O)c1ccc(OC(=O)CCCCCNC(=N)N)cc1 [Gabexate mesilate] (20 µM)

[0.979, 1.07]
